target: hPDE10A2 (Homo sapiens); experiment: biochemical; details: 60 nM cAMP substrate; read-out: hPDE10A2 pIC50 (converted)
Sequence (Q9Y233 267-1055): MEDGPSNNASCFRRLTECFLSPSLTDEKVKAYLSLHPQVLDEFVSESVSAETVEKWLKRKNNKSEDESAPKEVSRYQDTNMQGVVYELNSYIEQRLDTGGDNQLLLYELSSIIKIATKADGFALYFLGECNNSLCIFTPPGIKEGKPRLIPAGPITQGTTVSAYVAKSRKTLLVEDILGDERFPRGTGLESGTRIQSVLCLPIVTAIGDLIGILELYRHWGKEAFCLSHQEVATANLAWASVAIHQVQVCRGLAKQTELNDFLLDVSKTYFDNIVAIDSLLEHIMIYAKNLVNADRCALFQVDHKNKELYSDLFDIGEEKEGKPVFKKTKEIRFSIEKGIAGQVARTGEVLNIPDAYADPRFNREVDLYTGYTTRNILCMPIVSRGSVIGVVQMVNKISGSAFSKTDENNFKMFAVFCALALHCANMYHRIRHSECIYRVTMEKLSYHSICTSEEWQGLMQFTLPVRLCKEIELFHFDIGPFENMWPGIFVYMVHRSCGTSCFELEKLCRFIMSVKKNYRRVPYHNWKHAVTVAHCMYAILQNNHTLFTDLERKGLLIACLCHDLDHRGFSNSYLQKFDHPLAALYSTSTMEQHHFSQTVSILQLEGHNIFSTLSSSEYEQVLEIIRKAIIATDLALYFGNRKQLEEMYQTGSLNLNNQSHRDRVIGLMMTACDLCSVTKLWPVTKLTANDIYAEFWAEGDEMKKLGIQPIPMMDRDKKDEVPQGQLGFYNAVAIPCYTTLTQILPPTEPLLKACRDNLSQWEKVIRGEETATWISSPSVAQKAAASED
Classes based on IC50: lowest: < 400 nM; middle: ≥ 400 nM and < 1000 nM; highest: ≥ 1000 nM

>>> label("Cc1cccc2ccnc(N3CC[C@@H](C)C(c4cc(C(F)F)nc5ncnn45)C3)c12 (some centres unmarked)")
"highest"
>>> label("C[C@@H]1CCN(c2ccc(C#N)cn2)C[C@H]1c1cc(C(F)F)nc2ncnn12")
"highest"
>>> label("C[C@H]1CCN(c2nccc3occc23)C[C@@H]1c1cc(C(F)F)nc2ncnn12")
"highest"
>>> label("CC(C)Oc1cccnc1N1CC[C@H](C)[C@@H](c2cc(C(F)F)nc3ncnn23)C1.Cl")
"highest"
>>> label("C[C@@H]1CCN(c2nccc3cccnc23)C[C@H]1c1cc(C(F)F)nc2ncnn12")
"middle"
>>> label("C[C@@H]1CCN(c2ccnc3ccccc23)C[C@H]1c1cc(C(F)F)nc2ncnn12")
"highest"
>>> label("C[C@@H]1CCN(c2ncnc3ccccc23)C[C@H]1c1cc(C(F)F)nc2ncnn12")
"middle"
>>> label("Cc1cc([C@@H]2CN(c3nccc4ccc(Br)cc34)CC[C@H]2C)n2ncnc2n1")
"lowest"
>>> label("Cc1cc([C@@H]2CN(c3nccc4ccc(Cl)cc34)CC[C@H]2C)n2ncnc2n1")
"lowest"
>>> label("CC(C)Oc1cccnc1N1CC[C@@H](C)[C@H](c2cc(C(F)F)nc3ncnn23)C1.Cl")
"highest"
>>> label("C[C@@H]1CCN(c2ncc(C(F)(F)F)cc2Br)C[C@H]1c1cc(C(F)F)nc2ncnn12")
"middle"
>>> label("CCCCOc1ccnc(N2CC[C@@H](C)[C@H](c3cc(C(F)F)nc4ncnn34)C2)c1")
"lowest"
>>> label("C[C@@H]1CCN(c2nccc3ccc(Br)cc23)C[C@H]1c1cc(C(F)F)nc2ncnn12")
"middle"
>>> label("Cc1cc([C@@H]2CN(c3nccc4ccccc34)CC[C@H]2C)n2ncnc2n1")
"lowest"
>>> label("C[C@@H]1CCN(c2ccc(F)cn2)C[C@H]1c1cc(C(F)F)nc2ncnn12")
"highest"
>>> label("C[C@@H]1CCN(c2nccc3ccc(Cl)cc23)C[C@H]1c1cc(C(F)F)nc2ncnn12")
"lowest"
>>> label("C[C@H]1CCN(c2nccc3ccc(Br)cc23)C[C@@H]1c1cc(C(F)F)nc2ncnn12")
"highest"
>>> label("C[C@@H]1CCN(c2ncccc2Cl)C[C@H]1c1cc(C(F)F)nc2ncnn12")
"middle"
>>> label("C[C@@H]1CCN(c2ccc(C(F)(F)F)cn2)C[C@H]1c1cc(C(F)F)nc2ncnn12")
"middle"
>>> label("C[C@@H]1CCN(c2cccc(C(F)(F)F)n2)C[C@H]1c1cc(C(F)F)nc2ncnn12")
"middle"
>>> label("C[C@@H]1CCN(c2ccccn2)C[C@H]1c1cc(C(F)F)nc2ncnn12.Cl")
"highest"
>>> label("FC(F)c1cc([C@H]2CC[C@H]3CC[C@@H]2N3c2c(Br)ccc3ccncc23)n2ncnc2n1")
"middle"
>>> label("C[C@@H]1CCN(c2nccc3ccc(O)cc23)C[C@H]1c1cc(C(F)F)nc2ncnn12")
"lowest"
>>> label("Cc1ccc(C#N)c(N2CC[C@@H](C)[C@H](c3cc(C(F)F)nc4ncnn34)C2)n1")
"lowest"
>>> label("C[C@@H]1CCN(c2nccc3ccccc23)C[C@H]1c1cc(C(F)F)nc2ncnn12")
"middle"
>>> label("C[C@@H]1CCN(c2cccc(C#N)n2)C[C@H]1c1cc(C(F)F)nc2ncnn12")
"middle"
>>> label("C[C@@H]1CCN(c2ncc(Cl)c3ccccc23)C[C@H]1c1cc(C(F)F)nc2ncnn12")
"middle"
>>> label("C[C@@H]1CCN(c2ccc(Cl)cn2)C[C@H]1c1cc(C(F)F)nc2ncnn12")
"middle"
>>> label("C[C@@H]1CCN(c2cc(N3CCOCC3)ccn2)C[C@H]1c1cc(C(F)F)nc2ncnn12")
"highest"
>>> label("Cc1cccc(N2CC[C@@H](C)C(c3cc(C(F)F)nc4ncnn34)C2)n1 (some centres unmarked)")
"highest"
>>> label("C[C@@H]1CCN(c2nccc3cccc(F)c23)C[C@H]1c1cc(C(F)F)nc2ncnn12")
"lowest"
